molecular target: DDB1:CRBN complex, full-length human CRBN (residues 1–442) with N-terminal biotinylated Avi-tag, co-expressed … (human, UniProt Q96SW2 1-442; Q16531 1-1140, biotin on the Avi-tag (BirA, 100% efficiency)); assay: SPR; pomalidomide 5 uM
Sequence (Q96SW2 whole entry, chain 1 of 2, the tested form may be a part): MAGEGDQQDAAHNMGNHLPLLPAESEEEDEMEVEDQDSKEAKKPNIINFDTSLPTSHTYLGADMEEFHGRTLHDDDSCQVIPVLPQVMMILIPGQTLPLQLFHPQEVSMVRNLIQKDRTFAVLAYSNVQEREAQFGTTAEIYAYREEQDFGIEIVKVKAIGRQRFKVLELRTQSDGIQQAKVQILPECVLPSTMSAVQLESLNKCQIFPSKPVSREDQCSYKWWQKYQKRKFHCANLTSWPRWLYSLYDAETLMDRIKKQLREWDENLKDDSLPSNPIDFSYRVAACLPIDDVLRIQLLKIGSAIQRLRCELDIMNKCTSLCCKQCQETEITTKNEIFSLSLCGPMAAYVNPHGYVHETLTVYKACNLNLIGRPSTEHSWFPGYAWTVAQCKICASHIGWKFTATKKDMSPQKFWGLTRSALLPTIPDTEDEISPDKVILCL
Sequence (Q16531 whole entry, chain 2 of 2, the tested form may be a part): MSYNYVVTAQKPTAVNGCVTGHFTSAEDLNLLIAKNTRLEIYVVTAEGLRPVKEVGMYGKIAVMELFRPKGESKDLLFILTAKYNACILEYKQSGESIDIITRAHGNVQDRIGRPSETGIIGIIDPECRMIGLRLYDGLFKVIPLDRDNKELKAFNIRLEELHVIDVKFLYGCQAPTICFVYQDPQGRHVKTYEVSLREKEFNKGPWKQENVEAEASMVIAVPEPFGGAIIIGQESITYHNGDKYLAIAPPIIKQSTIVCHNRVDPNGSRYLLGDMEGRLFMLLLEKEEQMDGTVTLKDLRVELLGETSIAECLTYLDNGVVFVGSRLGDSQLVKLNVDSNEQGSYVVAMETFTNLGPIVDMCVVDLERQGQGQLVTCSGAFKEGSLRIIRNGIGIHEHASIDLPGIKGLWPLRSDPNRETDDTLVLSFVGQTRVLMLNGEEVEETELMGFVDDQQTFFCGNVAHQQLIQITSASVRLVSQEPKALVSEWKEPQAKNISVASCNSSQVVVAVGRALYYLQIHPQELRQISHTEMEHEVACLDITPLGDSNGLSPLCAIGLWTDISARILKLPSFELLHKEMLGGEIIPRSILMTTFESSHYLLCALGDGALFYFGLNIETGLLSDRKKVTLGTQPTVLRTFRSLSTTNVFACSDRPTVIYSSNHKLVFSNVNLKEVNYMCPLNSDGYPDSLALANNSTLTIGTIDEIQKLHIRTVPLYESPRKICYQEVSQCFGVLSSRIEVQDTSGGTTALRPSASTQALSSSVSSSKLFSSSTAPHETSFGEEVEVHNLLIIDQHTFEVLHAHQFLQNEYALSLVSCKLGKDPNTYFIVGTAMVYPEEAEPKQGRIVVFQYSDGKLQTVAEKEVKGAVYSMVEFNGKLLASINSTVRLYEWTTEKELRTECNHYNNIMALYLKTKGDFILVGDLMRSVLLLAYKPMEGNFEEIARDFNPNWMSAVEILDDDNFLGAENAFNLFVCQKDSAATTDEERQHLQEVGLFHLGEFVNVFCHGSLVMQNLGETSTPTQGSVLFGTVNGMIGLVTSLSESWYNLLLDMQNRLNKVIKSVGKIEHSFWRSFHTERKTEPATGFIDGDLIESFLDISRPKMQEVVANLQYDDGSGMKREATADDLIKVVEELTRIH
valueKind: pKd
One number for each entry, as −log10 of the molar value.

{"binder": "Human SALL4 ZF1-2(370–454) (domain or fragment) DVKPKDEAALYKHKCKYCSKVFGTDSSLQIHLRSHTGERPFVCSVCGHRFTTKGNLKVHFHRHPQVKANPQLFAEFQDKVAAGNG", "pKd": 7.22}

May I ask what pKd has been recorded for TGERPFVCSVCGHRFTTKGNLKVHFHRHPQVKANPQLFAEFQDKVAAGNG (domain or fragment) [Human SALL4 ZF2(405–454)] ?
6.15
